# test details: Distribution of compound in sebaceous glands and blood of golden hamsters after single skin application
# Format: in vivo
# test context: male, hamster, sebaceous glands (left and right), topical, 1.2 mg, left and right sebaceous glands, dose 1.2 mg, 8 h; read-out: Concentration mean in sebaceous glands
measure: concentration at 8 h (ng/mL)
# output: bare number, implied unit ng/mL

compound `Cc1ncsc1-c1ccc(CNC(=O)[C@@H]2C[C@@H](O)CN2C(=O)[C@@H](NC(=O)COCCCCOc2ccc(-c3ccc(N4C(=S)N(c5ccc(C#N)c(C(F)(F)F)c5F)C(=O)C4(C)C)cn3)cc2)C(C)(C)C)cc1` , concentration at 8 h observed: 13500
